Measured cell viability values are reported for all entries that follow.
# Test system: SEM cells
# ASSAY REMARKS: cell viability relative to DMSO control; higher = less cytotoxic
# SETTINGS: HPLM + 10% dialyzed FBS; 48 h; 0.00234 µM

COMPOUND: c1cc2c(cc1[C@H]1OC[C@H]3[C@@H]1CO[C@@H]3c1ccc3c(c1)OCO3)OCO2
READOUT UNITS: %
cell viability: 105
--
COMPOUND: CCc1nc(N)nc(N)c1-c1ccc(Cl)cc1
READOUT UNITS: %
cell viability: 95
--
COMPOUND: CCC(=O)NC[C@H](Cc1ccc(OCCc2nc(-c3ccccc3)oc2C)cc1)N/C(C)=C\C(=O)c1ccc(C(F)(F)F)cc1
READOUT UNITS: %
cell viability: 106
--
COMPOUND: CN(C)CCc1c[nH]c2ccc(Cn3cncn3)cc12
READOUT UNITS: %
cell viability: 88.7
--
COMPOUND: C[C@@H](Cc1cc2c(c(C(N)=O)c1)N(CCCO)CC2)NCCOc1ccccc1OCC(F)(F)F
READOUT UNITS: %
cell viability: 85.3
--
COMPOUND: CCC[C@H](Nc1nc(-c2ccc(NC(=O)NCC)c(OC)c2)ncc1C)c1cccnc1
READOUT UNITS: %
cell viability: 108
--
COMPOUND: O=C1c2ccccc2-c2n[nH]c3cccc1c23
READOUT UNITS: %
cell viability: 101
--
COMPOUND: O=C(NOCC1CC1)c1ccc(F)c(F)c1Nc1ccc(I)cc1Cl
READOUT UNITS: %
cell viability: 87.8
--
COMPOUND: Cc1cnc(Nc2cccc(CN3CCOCC3)c2)nc1Nc1cccc([S+](=O)([O-])NC(C)(C)C)c1
READOUT UNITS: %
cell viability: 80.3
--
COMPOUND: O=c1oc2cc(O)ccc2s1
READOUT UNITS: %
cell viability: 110
--
COMPOUND: CC1(C)CCC(C)(C)c2cc(NC(=O)c3ccc(C(=O)O)cc3)ccc21
READOUT UNITS: %
cell viability: 107
--
COMPOUND: CC1=CC/2=C(C=C1C)N(C[C@@H](O)[C@@H](O)[C@@H](O)CO)C/3=N/C(=O)NC(=O)C3=N2
READOUT UNITS: %
cell viability: 122
--
COMPOUND: CCOc1cc(C(=O)Nc2ccc(Cl)c(-c3nc4ccccc4[nH]3)c2)cc(OCC)c1OCC
READOUT UNITS: %
cell viability: 76
--
COMPOUND: C[S+](=O)([O-])OCCCCO[S+](C)(=O)[O-]
READOUT UNITS: %
cell viability: 119
--
COMPOUND: Nc1cc(N2CCCCC2)nc(N)[n+]1[O-]
READOUT UNITS: %
cell viability: 122
--
COMPOUND: CC[C@H](C)C(=O)O[C@H]1C[C@@H](C)\C=C2\C=C/[C@H](C)[C@H](CC[C@@H]3C[C@@H](O)CC(=O)O3)[C@@H]12
READOUT UNITS: %
cell viability: 85.1
--
COMPOUND: CC1(C)[C@@H](O)CC[C@@]2(C)[C@H]1CC[C@]3(C)[C@@H]2C(=O)\C=C/4[C@@H]5C[C@](C)(CC[C@]5(C)CC[C@@]34C)C(O)=O
READOUT UNITS: %
cell viability: 98.8
--
COMPOUND: OC1CCC(CC1)N2\C=N/C3=C(C2=N)C(=C([N]3CC4=CC=CC=C4)C5=CC=CC=C5)C6=CC=CC=C6 (stereo not drawn)
READOUT UNITS: %
cell viability: 123
